test: Pharmacokinetics in opioid-dependent patients (Phase IB study); format: in vivo, human; settings: human, serum, 180 mg, opioid-dependent patients, Cohort 3 (180 mg), mean ± SD; read-out: Half-life (converted)

{"columns": ["compound", "half-life, h"],
 "data": [
  ["CCC1CC2CC3c4[nH]c5ccc(O)cc5c4CCN(C2)C13 (stereo not shown)", 23.9]
]}

====

experiment: Pharmacokinetics in opioid-dependent patients (Phase IB study); format: in vivo, human; settings: human, serum, 180 mg, opioid-dependent patients, Cohort 3 (180 mg), range; read-out: Vd/F [range]
measured_metric: Vd/F

{"columns": ["compound", "value"],
 "data": [
  ["CCC1CC2CC3c4[nH]c5ccc(O)cc5c4CCN(C2)C13 (stereo not shown)", "581 to 1610 L"]
]}

====

assay: Pharmacokinetics of noribogaine in healthy volunteers, ascending single oral dose (plasma noribogaine and noribogaine glucuronide); conditions: male, human, plasma, po, 30 mg

{"columns": ["compound", "AUC(0-t) [ng·h/mL]"],
 "data": [
  ["CCC1CC2CC3c4[nH]c5ccc(O)cc5c4CCN(C2)C13 (stereo not shown) [Noribogaine]", 678]
]}

====

test: Pharmacokinetics of noribogaine in healthy volunteers, ascending single oral dose (plasma noribogaine and noribogaine glucuronide); conditions: male, human, plasma, po, 30 mg

{"columns": ["compound", "Vd/F / L"],
 "data": [
  ["CCC1CC2CC3c4[nH]c5ccc(O)cc5c4CCN(C2)C13 (stereo not shown)", 1850]
]}

====

Assay: Pharmacokinetics in opioid-dependent patients (Phase IB study)
Type: in vivo, human
Conditions: human, serum, 120 mg, opioid-dependent patients, Cohort 2 (120 mg), range; read-out: AUC(0-T) [range]
Protocol: Three cohorts of nine (9) subjects (6 administered noribogaine and 3 administered placebo in each cohort) were evaluated for tolerability, pharmacokinetics, and efficacy. Cohort 1 received a single dose of 60 mg noribogaine or placebo. Cohort 2 received a single dose of 120 mg noribogaine or placebo. Cohort 3 received a single dose of 180 mg noribogaine or placebo. […]

{"columns": ["molecule", "AUC(0-t)"],
 "data": [
  ["CCC1CC2CC3c4[nH]c5ccc(O)cc5c4CCN(C2)C13 (stereo not shown) [Noribogaine]", "1560 to 5640 ng·h/mL"]
]}

====

Assay: Pharmacokinetics in opioid-dependent patients (Phase IB study)
Assay type: in vivo, human
Details: human, serum, 120 mg, opioid-dependent patients, Cohort 2 (120 mg), range; read-out: Tmax [range]
Method: Three cohorts of nine (9) subjects (6 administered noribogaine and 3 administered placebo in each cohort) were evaluated for tolerability, pharmacokinetics, and efficacy. Cohort 1 received a single dose of 60 mg noribogaine or placebo. Cohort 2 received a single dose of 120 mg noribogaine or placebo. Cohort 3 received a single dose of 180 mg noribogaine or placebo. […]

{"columns": ["molecule", "Tmax"],
 "data": [
  ["CCC1CC2CC3c4[nH]c5ccc(O)cc5c4CCN(C2)C13 (stereo not shown)", "0.98 to 4.02 h"]
]}

====

assay: Pharmacokinetics in opioid-dependent patients (Phase IB study); assay type: in vivo, human; details: human, serum, 120 mg, opioid-dependent patients, Cohort 2 (120 mg), range; read-out: AUC(0-¥) [range]

{"columns": ["molecule", "AUC"],
 "data": [
  ["CCC1CC2CC3c4[nH]c5ccc(O)cc5c4CCN(C2)C13 (stereo not shown) [Noribogaine]", "1600 to 5770 ng·h/mL"]
]}

====

assay: Pharmacokinetics in opioid-dependent patients (Phase IB study); type: in vivo, human; conditions: human, serum, 120 mg, opioid-dependent patients, Cohort 2 (120 mg), range; read-out: Vd/F [range]

{"columns": ["compound", "Vd/F"],
 "data": [
  ["CCC1CC2CC3c4[nH]c5ccc(O)cc5c4CCN(C2)C13 (stereo not shown)", "824 to 5240 L"]
]}

====

test: Pharmacokinetics in opioid-dependent patients (Phase IB study); format: in vivo, human; conditions: human, serum, 120 mg, opioid-dependent patients, Cohort 2 (120 mg), range; read-out: Half-life [range]

{"columns": ["molecule", "half-life"],
 "data": [
  ["CCC1CC2CC3c4[nH]c5ccc(O)cc5c4CCN(C2)C13 (stereo not shown)", "21.9 to 48.3 h"]
]}

====

test: Pharmacokinetics of noribogaine in healthy volunteers, ascending single oral dose (plasma noribogaine and noribogaine glucuronide); conditions: male, human, plasma, po, 10 mg

{"columns": ["compound", "units_label", "Cmax"],
 "data": [
  ["CCC1CC2CC3c4[nH]c5ccc(O)cc5c4CCN(C2)C13 (stereo not shown) [Noribogaine]", "ng/mL", 14.5]
]}

====

assay: Pharmacokinetics in opioid-dependent patients (Phase IB study); type: in vivo, human; details: human, serum, 60 mg, opioid-dependent patients, Cohort 1 (60 mg), serum, range; read-out: Cmax [range]
measured_metric: Cmax

{"columns": ["molecule", "value"],
 "data": [
  ["CCC1CC2CC3c4[nH]c5ccc(O)cc5c4CCN(C2)C13 (stereo not shown) [Noribogaine]", "41.3 to 113 ng/mL"]
]}

====

test: Pharmacokinetics in opioid-dependent patients (Phase IB study); assay type: in vivo, human; settings: human, serum, 180 mg, opioid-dependent patients, Cohort 3 (180 mg), serum, mean ± SD; read-out: Cmax

{"columns": ["compound", "Cmax, µg/mL"],
 "data": [
  ["CCC1CC2CC3c4[nH]c5ccc(O)cc5c4CCN(C2)C13 (stereo not shown) [Noribogaine]", 0.268]
]}

====

test: Pharmacokinetics in opioid-dependent patients (Phase IB study); assay type: in vivo, human; conditions: human, serum, 60 mg, opioid-dependent patients, Cohort 1 (60 mg), range; read-out: Half-life [range]

{"columns": ["compound", "half-life"],
 "data": [
  ["CCC1CC2CC3c4[nH]c5ccc(O)cc5c4CCN(C2)C13 (stereo not shown)", "18.3 to 37.3 h"]
]}

====

experiment: Pharmacokinetics of noribogaine in healthy volunteers, ascending single oral dose (plasma noribogaine and noribogaine glucuronide); settings: male, human, plasma, po, 3 mg
measured_metric: AUC(0-t)

{"columns": ["molecule", "measured_metric", "value"],
 "data": [
  ["CCC1CC2CC3c4[nH]c5ccc(O)cc5c4CCN(C2)C13 (stereo not shown)", "AUC(0-t)", "72.2 ng·h/mL"]
]}

====

assay: Pharmacokinetics in opioid-dependent patients (Phase IB study); type: in vivo, human; settings: human, serum, 60 mg, opioid-dependent patients, Cohort 1 (60 mg), range; read-out: AUC(0-¥) [range]

{"columns": ["compound", "AUC"],
 "data": [
  ["CCC1CC2CC3c4[nH]c5ccc(O)cc5c4CCN(C2)C13 (stereo not shown)", "1120 to 2550 ng·h/mL"]
]}

====

assay: Pharmacokinetics in opioid-dependent patients (Phase IB study); assay type: in vivo, human; details: human, serum, 60 mg, opioid-dependent patients, Cohort 1 (60 mg), range; read-out: Tmax [range]
measured_metric: Tmax

{"columns": ["compound", "value"],
 "data": [
  ["CCC1CC2CC3c4[nH]c5ccc(O)cc5c4CCN(C2)C13 (stereo not shown)", "2.5 to 5 h"]
]}

====

assay: Pharmacokinetics of noribogaine in healthy volunteers, ascending single oral dose (plasma noribogaine and noribogaine glucuronide); conditions: male, human, serum, oral, 3 mg
measured_metric: Cmax

{"columns": ["compound", "measured_metric", "value"],
 "data": [
  ["CCC1CC2CC3c4[nH]c5ccc(O)cc5c4CCN(C2)C13 (stereo not shown) [Noribogaine]", "Cmax", "5.2 ng/mL"]
]}

====

test: Pharmacokinetics in opioid-dependent patients (Phase IB study); type: in vivo, human; details: human, serum, 120 mg, opioid-dependent patients, Cohort 2 (120 mg), mean ± SD; read-out: Vd/F
measured_metric: Vd/F (L)

{"columns": ["compound", "units_label", "value"],
 "data": [
  ["CCC1CC2CC3c4[nH]c5ccc(O)cc5c4CCN(C2)C13 (stereo not shown)", "L", 2110]
]}

====

assay: Pharmacokinetics in opioid-dependent patients (Phase IB study); format: in vivo, human; conditions: human, serum, 180 mg, opioid-dependent patients, Cohort 3 (180 mg), serum, range; read-out: Cmax [range]

{"columns": ["molecule", "Cmax"],
 "data": [
  ["CCC1CC2CC3c4[nH]c5ccc(O)cc5c4CCN(C2)C13 (stereo not shown) [Noribogaine]", "205 to 338 ng/mL"]
]}

====

Assay: Pharmacokinetics in opioid-dependent patients (Phase IB study)
Type: in vivo, human
Conditions: human, serum, 180 mg, opioid-dependent patients, Cohort 3 (180 mg), mean ± SD; read-out: Vd/F
Method: Three cohorts of nine (9) subjects (6 administered noribogaine and 3 administered placebo in each cohort) were evaluated for tolerability, pharmacokinetics, and efficacy. Cohort 1 received a single dose of 60 mg noribogaine or placebo. Cohort 2 received a single dose of 120 mg noribogaine or placebo. Cohort 3 received a single dose of 180 mg noribogaine or placebo. […]

{"columns": ["compound", "Vd/F / L"],
 "data": [
  ["CCC1CC2CC3c4[nH]c5ccc(O)cc5c4CCN(C2)C13 (stereo not shown)", 1030]
]}
